# Kd values compiled below
Assayed Target: Human DDB1 (Homo sapiens (Human))
Protocol Description: Surface plasmon resonance (SPR) binding assay to immobilized His-DDB1
Run Conditions: SPR, steady state affinity model, 25° C.; read-out: Binding (DDB1 binder activities, Kd)
Property Name: Kd

>>> observed_value("CNc1ccc(C(=O)Nc2ncc([N+](=O)[O-])s2)c(C)c1")
"20 to 100 µM"
>>> observed_value("CC(C)COc1ccccc1C(=O)N(C)c1ncc([N+](=O)[O-])s1")
"20 to 100 µM"
>>> observed_value("CCCC(=O)Nc1ccc(C(=O)Nc2ncc([N+](=O)[O-])s2)c(OC(C)=O)c1")
"> 100 µM"
>>> observed_value("CCCNC(=O)c1cccc(C(=O)Nc2ncc([N+](=O)[O-])s2)c1O")
"20 to 100 µM"
>>> observed_value("CCCc1ccccc1C(=O)N(C)c1ncc([N+](=O)[O-])s1")
"20 to 100 µM"
>>> observed_value("CNc1ccccc1C(=O)Nc1ncc([N+](=O)[O-])s1")
"20 to 100 µM"
>>> observed_value("CC(=O)Nc1ccccc1C(=O)Nc1nc(C(F)(F)F)c([N+](=O)[O-])s1")
"20 to 100 µM"
>>> observed_value("CC(=O)Nc1ccccc1C(=O)Nc1ccc(C(C)C)s1")
"20 to 100 µM"
>>> observed_value("CC(=O)Oc1cccc(C)c1C(=O)Nc1ncc([N+](=O)[O-])s1")
"> 100 µM"
>>> observed_value("Cc1cc(-c2ccccc2)ccc1C(=O)Nc1ncc([N+](=O)[O-])s1")
"20 to 100 µM"
>>> observed_value("CCCCNc1ccc(C)c(C(=O)Nc2ncc([N+](=O)[O-])s2)c1")
"20 to 100 µM"
>>> observed_value("Cc1cc(N2CCN(C)CC2)ccc1C(=O)Nc1ncc([N+](=O)[O-])s1")
"> 100 µM"
>>> observed_value("NS(=O)(=O)c1ccccc1C(=O)Nc1ncc([N+](=O)[O-])s1")
"20 to 100 µM"
>>> observed_value("CC(=O)Nc1ccccc1C(=O)Nc1ccc(Cl)cn1")
"20 to 100 µM"
>>> observed_value("CCCCNc1ccc(C(=O)Nc2nc(-c3ccccc3)c([N+](=O)[O-])s2)c(-c2ccccc2)c1")
"< 20 µM"
>>> observed_value("CC(=O)N(C)c1ccccc1C(=O)Nc1ncc([N+](=O)[O-])s1")
"20 to 100 µM"
>>> observed_value("O=C1CCCCN1c1ncc([N+](=O)[O-])s1")
"20 to 100 µM"
>>> observed_value("CC(=O)Nc1ccccc1C(=O)Nc1nc(C(C)C)c([N+](=O)[O-])s1")
"< 20 µM"
>>> observed_value("CCOc1cc(NC2CCOCC2)ccc1C(=O)Nc1ncc([N+](=O)[O-])s1")
"20 to 100 µM"

* * *

Assayed Target: Human DDB1 (Homo sapiens (Human), UniProt Q16531)
Sequence (Q16531 whole entry): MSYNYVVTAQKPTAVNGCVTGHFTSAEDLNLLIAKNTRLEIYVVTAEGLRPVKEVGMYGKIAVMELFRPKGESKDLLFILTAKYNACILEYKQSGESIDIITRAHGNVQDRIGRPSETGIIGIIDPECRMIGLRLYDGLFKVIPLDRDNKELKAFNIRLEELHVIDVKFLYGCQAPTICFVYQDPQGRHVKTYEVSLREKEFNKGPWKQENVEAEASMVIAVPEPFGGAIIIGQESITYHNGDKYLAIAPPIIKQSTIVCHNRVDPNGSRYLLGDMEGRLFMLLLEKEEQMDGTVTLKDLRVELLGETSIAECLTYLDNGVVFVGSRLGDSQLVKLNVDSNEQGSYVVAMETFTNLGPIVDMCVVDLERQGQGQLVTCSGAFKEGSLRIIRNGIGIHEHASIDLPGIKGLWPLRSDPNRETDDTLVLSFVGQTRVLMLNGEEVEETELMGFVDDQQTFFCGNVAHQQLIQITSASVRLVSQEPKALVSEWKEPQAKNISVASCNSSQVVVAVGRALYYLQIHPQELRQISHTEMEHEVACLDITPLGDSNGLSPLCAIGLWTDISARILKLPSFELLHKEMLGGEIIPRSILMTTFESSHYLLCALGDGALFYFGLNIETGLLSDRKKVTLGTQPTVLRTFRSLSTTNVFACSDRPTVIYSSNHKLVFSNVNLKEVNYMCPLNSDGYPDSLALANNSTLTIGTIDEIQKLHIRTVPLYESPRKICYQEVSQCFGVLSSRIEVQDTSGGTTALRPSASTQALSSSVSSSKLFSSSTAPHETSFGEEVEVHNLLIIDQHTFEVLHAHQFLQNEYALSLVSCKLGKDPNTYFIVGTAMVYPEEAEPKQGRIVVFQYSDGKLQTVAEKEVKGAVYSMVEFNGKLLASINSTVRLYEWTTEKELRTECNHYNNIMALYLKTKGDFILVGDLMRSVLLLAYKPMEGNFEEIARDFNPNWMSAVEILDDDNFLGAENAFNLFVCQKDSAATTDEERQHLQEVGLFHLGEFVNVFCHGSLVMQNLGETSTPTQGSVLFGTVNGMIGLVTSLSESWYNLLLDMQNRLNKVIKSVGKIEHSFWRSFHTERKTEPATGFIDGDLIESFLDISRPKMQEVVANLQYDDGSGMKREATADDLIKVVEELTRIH
Protocol Description: Surface plasmon resonance (SPR) binding assay to immobilized His-DDB1
Run Conditions: SPR, DDB1 binding moieties with linkers and/or target protein binding moiety; read-out: Binding (Kd)
Property Name: Kd

>>> observed_value("Cc1nc(NC(=O)c2ccccc2NC(=O)CCCCCN)sc1[N+](=O)[O-]")
"< 20 µM"
>>> observed_value("CC(=O)Nc1cc(NCCOCCOCCOCCN)ccc1C(=O)Nc1nc(C)c([N+](=O)[O-])s1")
"20 to 100 µM"
>>> observed_value("CC(=O)Nc1cc(NCCCCCCCCCCNC(=O)C[C@@H]2N=C(c3ccc(Cl)cc3)c3c(sc(C)c3C)-n3c(C)nnc32)ccc1C(=O)Nc1nc(C)c([N+](=O)[O-])s1")
"20 to 100 µM"
>>> observed_value("CC(=O)Nc1cc(NCCOCCOCCOCCOCCOCCNC(=O)CN2CCN(c3ccc(Nc4ncc5c(C)c(C(C)=O)c(=O)n(C6CCCC6)c5n4)nc3)CC2)ccc1C(=O)Nc1nc(C)c([N+](=O)[O-])s1")
"< 20 µM"
>>> observed_value("CC(=O)Nc1cc(NCCCCN)ccc1C(=O)Nc1nc(C)c([N+](=O)[O-])s1")
"20 to 100 µM"
>>> observed_value("CC(=O)Nc1cc(NCCCCNC(=O)CN2CCC(n3nc(N4CCCc5cc(-c6cnn(C)c6)c(C(F)F)cc54)c4c3CCN(C(C)=O)C4)CC2)ccc1C(=O)Nc1nc(C)c([N+](=O)[O-])s1")
"20 to 100 µM"

* * *

# pIC50 values compiled below
Test system: Hs 578T
Protocol Description: Cell viability assay (CellTiter-Glo)
Type: cell-based
Run Conditions: Homo sapiens, 120 h, 5 days
pIC50: −log10 of the molar value.
Property Name: pIC50

>>> observed_value("CC(=O)c1c(C)c2cnc(Nc3ccc(N4CCN(CC(=O)NCCOCCOCCOCCOCCOCCOCCNc5ccc(C(=O)Nc6ncc([N+](=O)[O-])s6)c(C)c5)CC4)cn3)nc2n(C2CCCC2)c1=O")
"> 5.70"
>>> observed_value("CC(=O)c1c(C)c2cnc(Nc3ccc(N4CCNCC4)cn3)nc2n(C2CCCC2)c1=O [palbociclib, reference compound]")
"5.00 to 5.70"
>>> observed_value("CC(=O)c1c(C)c2cnc(Nc3ccc(N4CCN(CC(=O)NCCOCCOCCOCCOCCNc5ccc(C(=O)Nc6ncc([N+](=O)[O-])s6)c(C)c5)CC4)cn3)nc2n(C2CCCC2)c1=O")
"> 5.70"
>>> observed_value("CC(=O)c1c(C)c2cnc(Nc3ccc(N4CCN(CC(=O)NCCOCCOCCOCCOCCOCCNc5ccc(C(=O)Nc6ncc([N+](=O)[O-])s6)c(C)c5)CC4)cn3)nc2n(C2CCCC2)c1=O")
"> 5.70"

* * *

Assayed Target: Human DDB1 (Homo sapiens (Human), UniProt Q16531)
Protocol Description: Surface plasmon resonance (SPR) binding assay to immobilized His-DDB1
Run Conditions: SPR, steady state affinity model, 25° C.; read-out: Binding (DDB1 binder activities, Kd)
Property Name: Kd

>>> observed_value("CCCC(=O)Nc1ccc(OC(C)=O)c(C(=O)Nc2ncc([N+](=O)[O-])s2)c1")
"20 to 100 µM"
>>> observed_value("CCOc1cccc(C)c1C(=O)Nc1ncc([N+](=O)[O-])s1")
"> 100 µM"
>>> observed_value("CC(=O)Nc1ccccc1C(=O)Nc1nc(Br)c([N+](=O)[O-])s1")
"20 to 100 µM"
>>> observed_value("CCOc1ccccc1C(=O)N(C)c1ncc([N+](=O)[O-])s1")
"< 20 µM"
>>> observed_value("Cc1cc(NC(C)C)ccc1C(=O)Nc1ncc([N+](=O)[O-])s1")
"> 100 µM"
>>> observed_value("CC(=O)Nc1ccccc1C(=O)Nc1ccc([N+](=O)[O-])cn1")
"20 to 100 µM"
>>> observed_value("O=C(Nc1ncc([N+](=O)[O-])s1)c1ccccc1OC(F)(F)F")
"> 100 µM"
>>> observed_value("CC(=O)Nc1ccccc1C(=O)Nc1nc(-c2ccccc2)c([N+](=O)[O-])s1")
"< 20 µM"
>>> observed_value("CCCCNc1ccc(C(=O)Nc2nc(Br)c([N+](=O)[O-])s2)c(-c2ccccc2)c1")
"20 to 100 µM"

* * *

Assayed Target: UniProt Q16531
Protocol Description: Surface plasmon resonance (SPR) binding assay to immobilized His-DDB1
Run Conditions: SPR, steady state affinity model, 25° C.; read-out: Binding (DDB1 binder activities, Kd)
pKd: −log10 of the molar value.
Property Name: pKd

>>> observed_value("CCCCNc1ccc(C(=O)Nc2nc(C3CC3)c([N+](=O)[O-])s2)c(-c2ccccc2)c1")
"< 4.00"
>>> observed_value("CC(=O)Nc1ccccc1C(=O)Nc1ncc([N+](=O)[O-])s1")
"> 4.70"
>>> observed_value("CC(=O)Nc1ccccc1C(=O)Nc1cccnc1 [B-122, 2-Acetamido-N-(pyridin-3-yl)benzamide]")
"< 4.00"
>>> observed_value("CC(=O)Nc1ccccc1C(=O)Nc1nc(-c2ccccc2)cs1")
"4.00 to 4.70"
>>> observed_value("CCCCNc1ccc(C(=O)N(C)c2ncc([N+](=O)[O-])s2)c(OCC)c1")
"4.00 to 4.70"
>>> observed_value("CCCCNc1ccc(OC(C)=O)c(C(=O)Nc2ncc([N+](=O)[O-])s2)c1")
"4.00 to 4.70"
>>> observed_value("CC(C)Cc1ccccc1C(=O)N(C)c1ncc([N+](=O)[O-])s1")
"> 4.70"
>>> observed_value("Cc1cc(C#N)ccc1C(=O)Nc1ncc([N+](=O)[O-])s1")
"< 4.00"
>>> observed_value("O=C(Nc1ncc([N+](=O)[O-])s1)c1ccccc1-c1ccccc1")
"> 4.70"
>>> observed_value("O=C(Nc1ncc([N+](=O)[O-])s1)c1ccccc1O")
"4.00 to 4.70"
>>> observed_value("Cc1ccc(C)c(C(=O)Nc2ncc([N+](=O)[O-])s2)c1")
"> 4.70"
>>> observed_value("Nc1nc(N2CCOCC2)nc2c1CCN(Cc1cccc3cccnc13)C2")
"4.00 to 4.70"
>>> observed_value("CC(=O)Nc1ccccc1C(=O)Nc1ccc([N+](=O)[O-])cc1 [B-125, 2-Acetamido-N-(4-nitrophenyl)benzamide]")
"> 4.70"
>>> observed_value("O=C(Nc1ncc([N+](=O)[O-])s1)c1ccccc1OC1CC1")
"< 4.00"
>>> observed_value("COc1ccc(C(=O)Nc2ncc([N+](=O)[O-])s2)c(C)c1")
"< 4.00"
>>> observed_value("O=C(Nc1cccc(N2CCOC2=O)c1)c1ccccc1C1CCCN1 (stereo not shown)")
"4.00 to 4.70"
>>> observed_value("CC(=O)Oc1ccccc1C(=O)N(C)c1ncc([N+](=O)[O-])s1")
"> 4.70"
>>> observed_value("CCCCNc1ccc(C(=O)Nc2ncc([N+](=O)[O-])s2)c(C)c1")
"4.00 to 4.70"
>>> observed_value("CCCCNc1ccc(C(=O)Nc2ccc([N+](=O)[O-])s2)c(C(C)C)c1")
"< 4.00"
